experiment: gradient 5% acetonitrile 3 min, to 50% in 2 min, to 85% in 15 min, held 3 min, 100 µL/min; details: column: Zorbax Extend-C18 2.1 x 50 mm; eluents: water / acetonitrile, 0.1% formic acid
MEASURED_ENDPOINT: RP-LC retention time (s)

- MOLECULE: "O=C(c1cc(C2CC2)[nH]n1)N1CC(F)(F)C[C@H]1c1nc(C2CC2)no1"
  READOUT_UNITS: "s"
  MEAS_VALUE: 794
- MOLECULE: "Cc1nnc(C2CCCCCN2S(=O)(=O)c2ccccc2F)o1 (configuration not stated)"
  READOUT_UNITS: "s"
  MEAS_VALUE: 816
- MOLECULE: "CCn1nnc2c(N3CCc4cc(OC)c(OC)cc4C3C)ncnc21 (configuration not stated)"
  READOUT_UNITS: "s"
  MEAS_VALUE: 784
- MOLECULE: "CCCC1=C(C(=O)OCC)C(c2ccccc2OC)NC(=O)N1 (configuration not stated)"
  READOUT_UNITS: "s"
  MEAS_VALUE: 797
- MOLECULE: "O=C(CSc1ccc(S(=O)(=O)c2ccccc2)nn1)Nc1ccc2c(c1)OCCO2"
  READOUT_UNITS: "s"
  MEAS_VALUE: 821
- MOLECULE: "Cc1ccc(CNC(=O)CCc2nnc3c4cc(-c5ccccc5)nn4ccn23)cc1C"
  READOUT_UNITS: "s"
  MEAS_VALUE: 815
- MOLECULE: "CCOC(=O)CNC(=O)NC(C(=O)N1CCc2ccccc21)C(C)C (configuration not stated)"
  READOUT_UNITS: "s"
  MEAS_VALUE: 783

* * *

assay: gradient 5% acetonitrile 3 min, to 50% in 2 min, to 85% in 15 min, held 3 min, 100 µL/min; conditions: column: Zorbax Extend-C18 2.1 x 50 mm; eluents: water / acetonitrile, 0.1% formic acid
MEASURED_ENDPOINT: RP-LC retention time (s)

- COMPOUND: "COc1ccc(-c2nnc(-c3ccc(C)c(S(=O)(=O)N(C)C)c3)o2)cc1OC"
  READOUT_UNITS: "s"
  RP-LC retention time: 878
- COMPOUND: "Cc1nc2ccn(Cc3cccs3)c(=O)c2cc1C(=O)NCCC1=CCCCC1"
  READOUT_UNITS: "s"
  RP-LC retention time: 931
- COMPOUND: "O=C(NCc1cccnc1)C1CN(S(=O)(=O)c2cccnc2)CC12CCCCC2 (centres undefined)"
  READOUT_UNITS: "s"
  RP-LC retention time: 595
- COMPOUND: "Cc1ccc(NC(=O)N2CCC(n3cnnc3C3CC3)C2)c(Cl)c1 (centres undefined)"
  READOUT_UNITS: "s"
  RP-LC retention time: 663
- COMPOUND: "O=C(CCn1cnc2cc(-c3noc(Cc4cccs4)n3)ccc21)N1CCCC1"
  READOUT_UNITS: "s"
  RP-LC retention time: 691
- COMPOUND: "COc1ccc(CCc2nc(Cn3c(C)nc4ccccc4c3=O)no2)cc1"
  READOUT_UNITS: "s"
  RP-LC retention time: 858
- COMPOUND: "COc1ccc(C)cc1NC(=O)Nc1c(-c2ccc(C)cc2)nc2ccccn12"
  READOUT_UNITS: "s"
  RP-LC retention time: 722
- COMPOUND: "COc1ccc(-c2n[nH]c3c2C(c2cccnc2)N(c2ccc(Br)cc2)C3=O)cc1 (centres undefined)"
  READOUT_UNITS: "s"
  RP-LC retention time: 768
- COMPOUND: "Cn1cnc(S(=O)(=O)N2CCC(c3noc(-c4cccnc4)n3)C2)c1 (centres undefined)"
  READOUT_UNITS: "s"
  RP-LC retention time: 627
- COMPOUND: "COc1cc(-c2nc3nc(C)cc(C)n3c2Nc2ccccc2)ccc1O"
  READOUT_UNITS: "s"
  RP-LC retention time: 647
- COMPOUND: "CCn1c(CNC(=O)C2CCC2)nc2c1CN(C(=O)Cc1ccc(Cl)cc1)CC2"
  READOUT_UNITS: "s"
  RP-LC retention time: 652
- COMPOUND: "CN(C)C(=O)c1cc2c(s1)CCC(C(=O)NCCc1ccccn1)C2 (centres undefined)"
  READOUT_UNITS: "s"
  RP-LC retention time: 560
- COMPOUND: "Cc1cc(C)n2nc(SCC(=O)NC3CCC(C)CC3)nc2n1 (centres undefined)"
  READOUT_UNITS: "s"
  RP-LC retention time: 752
- COMPOUND: "COc1ccc(CCNC(=O)C2CCc3nc(N4CCC(C)CC4)ncc3C2)cc1OC (centres undefined)"
  READOUT_UNITS: "s"
  RP-LC retention time: 757
